- test-target: SARM1 (ARM-SAM-TIR) (Homo sapiens (Human), UniProt Q6SZW1)
- Sequence (Q6SZW1 other isoform, or with tags, fused parts or gaps): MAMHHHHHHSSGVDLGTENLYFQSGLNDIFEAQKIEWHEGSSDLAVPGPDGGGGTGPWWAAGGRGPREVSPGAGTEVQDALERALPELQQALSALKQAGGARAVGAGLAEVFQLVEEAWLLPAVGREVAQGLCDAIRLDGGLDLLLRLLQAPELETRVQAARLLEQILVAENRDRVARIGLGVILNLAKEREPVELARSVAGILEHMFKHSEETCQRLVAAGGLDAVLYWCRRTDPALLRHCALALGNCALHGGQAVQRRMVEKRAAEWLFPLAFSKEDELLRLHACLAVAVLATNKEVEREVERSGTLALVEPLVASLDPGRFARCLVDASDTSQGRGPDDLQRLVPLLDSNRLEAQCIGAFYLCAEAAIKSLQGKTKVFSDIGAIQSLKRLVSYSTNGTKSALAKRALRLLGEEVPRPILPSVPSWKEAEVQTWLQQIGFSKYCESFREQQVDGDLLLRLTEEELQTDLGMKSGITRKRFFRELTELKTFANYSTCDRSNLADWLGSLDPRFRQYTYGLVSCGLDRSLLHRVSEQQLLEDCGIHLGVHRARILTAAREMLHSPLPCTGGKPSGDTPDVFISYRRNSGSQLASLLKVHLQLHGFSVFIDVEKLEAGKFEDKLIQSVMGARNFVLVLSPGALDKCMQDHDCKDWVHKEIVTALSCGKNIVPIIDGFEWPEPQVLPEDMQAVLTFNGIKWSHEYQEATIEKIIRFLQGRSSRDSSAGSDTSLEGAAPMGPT
- run-description: ARM-SAM-TIR SARM1 IC50 assay (NADase activity, NAD+ cleavage, RapidFire MS)
- condition-info: ARM-SAM-TIR lysate 5 μg/mL, 2 h pre-incubation, 5 μM NAD+, 2 hr room temperature
pIC50: −log10 of the molar value.
readout: pIC50

- compound: "Cc1c(-c2ccncc2)n[nH]c1NC(=O)Cn1cc(C)c2ccccc21 [Example 241]"
  readout-value: "4.82 to 5.30"
- compound: "Cc1c(-c2ccnnc2)n[nH]c1NC(=O)CCc1ccc(Cl)cc1 [Example 155]"
  readout-value: "> 5.30"
- compound: "[2H]C([2H])(C(=O)Nc1[nH]nc(-c2ccnnc2)c1C)C([2H])([2H])c1ccc(Cl)nc1 [Example 178]"
  readout-value: "> 5.30"
- compound: "O=C(CN1CCCc2ccccc21)Nc1nnc(-c2ccncc2)[nH]1 [Example 76]"
  readout-value: "< 4.52"

----------
- test-target: SARM1 (ARM-SAM-TIR) (Homo sapiens (Human))
- run-description: ARM-SAM-TIR SARM1 IC50 assay (NADase activity, NAD+ cleavage, RapidFire MS)
- condition-info: ARM-SAM-TIR lysate 5 μg/mL, 2 h pre-incubation, 5 μM NAD+, 2 hr room temperature
pIC50: −log10 of the molar value.

- compound: "[2H]C([2H])([2H])c1c(-c2ccncc2)n[nH]c1NC(=O)CCc1ccc(Cl)nc1 [Example 282]"
  pIC50: "> 5.30"
- compound: "O=C(CCc1ccc(Cl)cc1)Nc1nnc(-c2cncs2)[nH]1 [Example 60]"
  pIC50: "> 5.30"
- compound: "O=C(Nc1nnc(-c2ccncc2)[nH]1)[C@H]1C[C@@H](c2ccc(Cl)cc2)C1 [Example 23]"
  pIC50: "> 5.30"
- compound: "Cc1cnccc1-c1n[nH]c(NC(=O)CCc2ccc(Cl)nc2)c1C [Example 322]"
  pIC50: "> 5.30"
- compound: "O=C(CCc1ccc(C(F)(F)F)cc1)Nc1cc(-c2ccncc2)[nH]n1 [Example 62]"
  pIC50: "> 5.30"
- compound: "O=C(CCc1ccc(Cl)cc1)Nc1[nH]nc(-c2ccncc2)c1C1CC1 [Example 227]"
  pIC50: "> 5.30"
- compound: "O=C(Nc1nnc(-c2ccncc2)[nH]1)[C@@H]1CCc2ccccc2C1 [Example 89]"
  pIC50: "4.82 to 5.30"
- compound: "O=C(CCc1ccc(Cl)cc1)Nc1nnc(-c2ccncn2)[nH]1 [Example 156]"
  pIC50: "> 5.30"
- compound: "Cc1nn(C)c(C)c1OCC(=O)Nc1[nH]nc(-c2ccncc2)c1C [Example 240]"
  pIC50: "4.82 to 5.30"
- compound: "O=C(CCc1cccc(F)c1)Nc1cc(-c2ccncc2)n[nH]1 [Example 14]"
  pIC50: "> 5.30"
- compound: "C[C@H](CC(=O)Nc1nnc(-c2ccncc2)[nH]1)c1ccccc1 [Example 94]"
  pIC50: "4.52 to 4.82"
- compound: "Cc1[nH]c(NC(=O)CCc2ccc(Cl)nc2)nc1-c1ccncc1 [Example 250]"
  pIC50: "> 5.30"
- compound: "Cc1ccc(CCC(=O)Nc2nnc(-c3ccncc3)[nH]2)cc1 [Example 139]"
  pIC50: "> 5.30"
- compound: "Cc1c(-c2ccncc2F)n[nH]c1NC(=O)CCc1ccc(Cl)c(F)c1 [Example 320]"
  pIC50: "> 5.30"
- compound: "COc1ccc(CCC(=O)Nc2nnc(-c3ccncc3)[nH]2)cc1 [Example 127]"
  pIC50: "> 5.30"
- compound: "O=C(CCc1ccc(Cl)c(Br)c1)Nc1nnc(-c2ccncc2)[nH]1 [Example 10]"
  pIC50: "> 5.30"
- compound: "[2H]C([2H])(C(=O)Nc1[nH]nc(-c2ccncc2)c1C)C([2H])([2H])c1ccc(Cl)nc1 [Example 171]"
  pIC50: "> 5.30"
- compound: "Cc1c(-c2ccnnc2)n[nH]c1NC(=O)CC1CCOc2cc(Cl)ccc21 (stereo not drawn) [Example 231]"
  pIC50: "> 5.30"
- compound: "O=C(Nc1nnc(-c2ccncc2)[nH]1)N[C@H]1CCOc2cc(Cl)ncc21 [Example 277]"
  pIC50: "> 5.30"
- compound: "O=C(COc1ccc(Cl)cc1)Nc1nnc(-c2ccncc2)[nH]1 [Example 102]"
  pIC50: "4.82 to 5.30"
- compound: "O=C(CCc1ncc(C(F)(F)F)cn1)Nc1nnc(-c2ccncc2)[nH]1 [Example 57]"
  pIC50: "4.52 to 4.82"
- compound: "Cc1c(-c2ccncc2)n[nH]c1NC(=O)C(O)Cc1ccc(Cl)cc1 (stereo not drawn) [Example 223]"
  pIC50: "> 5.30"
- compound: "O=C(CC1CNc2cc(Cl)ccc21)Nc1nnc(-c2ccncc2)[nH]1 (stereo not drawn) [Example 283]"
  pIC50: "> 5.30"
- compound: "Cc1c(-c2ccncc2)n[nH]c1NC(=O)C[C@@H]1CCOc2cc(Cl)ccc21 [Example 215]"
  pIC50: "> 5.30"
- compound: "Cc1cnccc1-c1nnc(NC(=O)CCc2ccc(Cl)cc2)[nH]1 [Example 217]"
  pIC50: "> 5.30"
- compound: "Clc1ccc(OCCNc2nnc(-c3ccncc3)[nH]2)cc1 [Example 28]"
  pIC50: "< 4.52"
- compound: "Cc1c(-c2ccncc2)n[nH]c1NC(=O)C1CN(c2ccc(Cl)cc2)C1 [Example 220]"
  pIC50: "4.82 to 5.30"
- compound: "O=C(C[C@@H]1CCCc2ccccc21)Nc1nnc(-c2ccncc2)[nH]1 [Example 91]"
  pIC50: "> 5.30"
- compound: "Cc1c(-c2ccncc2)n[nH]c1NC(=O)[C@H](O)Cc1ccc(Cl)cc1 [Example 289]"
  pIC50: "> 5.30"
- compound: "O=C(CCc1ccc(C(F)(F)F)cc1)Nc1nnc(-c2ccncc2)[nH]1 [Example 124]"
  pIC50: "> 5.30"
- compound: "Cc1c(-c2ccncc2)n[nH]c1NC(=O)CCc1cccc(Cl)c1 [Example 248]"
  pIC50: "> 5.30"
- compound: "O=C(Nc1nnc(-c2ccncc2)[nH]1)N1CCc2cc(Cl)ccc2C1 [Example 185]"
  pIC50: "> 5.30"
- compound: "O=C(CC1CCNc2ccccc21)Nc1nnc(-c2ccncc2)[nH]1 (stereo not drawn) [Example 63]"
  pIC50: "< 4.52"

----------
- test-target: UniProtKB Q6SZW1
- run-description: ARM-SAM-TIR SARM1 IC50 assay (NADase activity, NAD+ cleavage, RapidFire MS)
- condition-info: ARM-SAM-TIR lysate 5 μg/mL, 2 h pre-incubation, 5 μM NAD+, 2 hr room temperature

- molecule: "CC(Cc1ccccc1)C(=O)Nc1nnc(-c2ccncc2)[nH]1 (stereo not drawn)"
  IC50: "5 to 15 µM"
- molecule: "O=C(CCc1ccc2[nH]ncc2c1)Nc1nnc(-c2ccncc2)[nH]1"
  IC50: "> 30 µM"
- molecule: "O=C(CCc1ccc(F)cc1Cl)Nc1nnc(-c2ccncc2)[nH]1"
  IC50: "< 5 µM"

// provenance: patent US12331033B2
